The reported numbers originate from the supplement of paper PMC6555819.

- Tested on: RARa:RXR (NR concentration 270 nM, RXRa partner concentration 90 nM)
- assayInfo: PBM binding z-score (relative to random genomic background probes); higher = stronger binding; sequences stand for … in GC…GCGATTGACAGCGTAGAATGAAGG
Kindly supply the reported PBM binding z-score values for the records listed here.

Look up PBM binding z-score for this sequence: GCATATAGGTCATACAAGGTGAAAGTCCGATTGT
4.41

Quick one: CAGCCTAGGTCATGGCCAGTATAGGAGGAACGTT
2.45

Repeat for the following sequence: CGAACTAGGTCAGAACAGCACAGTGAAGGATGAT
0.419

Also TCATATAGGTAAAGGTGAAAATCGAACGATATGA , if possible.
1.5

Subsequent entry: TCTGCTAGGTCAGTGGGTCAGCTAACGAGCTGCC
2.11

Then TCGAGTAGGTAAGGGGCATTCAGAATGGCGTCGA ?
-0.00481

What do you get for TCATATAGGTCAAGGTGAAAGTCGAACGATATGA ?
3.99

How about this sequence: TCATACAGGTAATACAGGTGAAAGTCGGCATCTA
1.23

Same question, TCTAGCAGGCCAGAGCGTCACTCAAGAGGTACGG this time
-0.492

Now give it for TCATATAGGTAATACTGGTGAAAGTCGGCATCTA too.
0.73

Thanks! And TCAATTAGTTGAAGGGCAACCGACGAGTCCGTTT ?
0.357

Try this sequence too: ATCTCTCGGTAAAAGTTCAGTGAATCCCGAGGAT
0.639

Now the same for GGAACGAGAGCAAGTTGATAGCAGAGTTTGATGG
-0.584

Next up: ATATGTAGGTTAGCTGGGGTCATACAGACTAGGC
5.89

Also need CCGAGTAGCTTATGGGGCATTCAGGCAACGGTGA , thanks.
-0.568

Also need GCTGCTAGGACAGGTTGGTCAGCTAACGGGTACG , thanks.
-0.833

Also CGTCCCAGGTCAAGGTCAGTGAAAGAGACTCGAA , if possible.
4.43

Queued: CGTCCAAGGTCATAGGAGGTCAGAGAAGACAGAT
6.6

What about this sequence? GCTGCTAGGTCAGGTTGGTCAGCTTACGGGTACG
0.655

Here is the next sequence: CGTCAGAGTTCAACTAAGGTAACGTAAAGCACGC
4.1

Do the same for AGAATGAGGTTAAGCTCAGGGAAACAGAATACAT please
2.17

Item: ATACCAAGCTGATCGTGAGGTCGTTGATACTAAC
1.26

// next record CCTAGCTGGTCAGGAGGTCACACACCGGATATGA
4.65

Continue with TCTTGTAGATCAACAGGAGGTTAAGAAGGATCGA
0.915

Same for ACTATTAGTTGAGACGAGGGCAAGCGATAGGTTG
0.73

Subsequent entry: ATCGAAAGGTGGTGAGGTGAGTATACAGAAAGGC
0.614

Try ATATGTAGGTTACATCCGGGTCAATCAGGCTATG next.
3.51

====

- System: THRa:RXRa (NR concentration 90 nM, RXRa partner concentration 90 nM)
- assayInfo: PBM binding z-score (relative to random genomic background probes); higher = stronger binding; sequences stand for … in GC…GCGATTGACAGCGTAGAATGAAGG
Please note: criterion met applies when PBM binding z-score is 3 or greater, and criterion not met applies otherwise.

Can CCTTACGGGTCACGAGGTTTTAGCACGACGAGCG be said to have PBM binding z-score at or above 3?
criterion met

Same again, this time with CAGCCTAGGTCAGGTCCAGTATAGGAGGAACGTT
criterion not met

Cool, now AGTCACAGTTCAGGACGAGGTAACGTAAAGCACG
criterion met

// query: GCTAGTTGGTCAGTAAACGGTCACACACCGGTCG
criterion not met

Also need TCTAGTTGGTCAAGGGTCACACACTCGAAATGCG , thanks.
criterion met

Note, next up: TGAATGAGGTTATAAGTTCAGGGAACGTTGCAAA
criterion not met

Likewise for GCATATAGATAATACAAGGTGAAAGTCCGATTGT ?
criterion not met

// repeat for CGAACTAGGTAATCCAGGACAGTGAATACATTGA and report
criterion not met

Then this sequence: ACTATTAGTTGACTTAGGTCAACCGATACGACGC
criterion met

Item: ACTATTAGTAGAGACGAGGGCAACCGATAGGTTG
criterion not met

Moving on to the next sequence: CCTACTGGGCCATTTAGAGGTCATTGATCATATG
criterion met

Also check ATATGTAGGTTTCATCCGGGTCATTCAGGCTATG
criterion met

Same again, this time with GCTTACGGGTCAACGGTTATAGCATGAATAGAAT
criterion not met

Next sequence: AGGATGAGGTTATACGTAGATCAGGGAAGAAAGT
criterion not met

Continue with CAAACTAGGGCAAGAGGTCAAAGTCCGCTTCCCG
criterion met

Another sequence to check: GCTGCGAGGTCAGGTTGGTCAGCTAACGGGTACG
criterion met

Queued: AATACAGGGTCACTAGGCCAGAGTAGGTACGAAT
criterion met

Try the sequence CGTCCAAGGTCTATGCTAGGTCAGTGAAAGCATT
criterion not met

Moving on to the next sequence: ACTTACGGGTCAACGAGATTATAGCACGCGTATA
criterion not met

Now the sequence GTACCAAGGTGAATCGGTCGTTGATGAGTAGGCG
criterion not met

Try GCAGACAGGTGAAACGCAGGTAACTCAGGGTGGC next.
criterion not met

Another sequence: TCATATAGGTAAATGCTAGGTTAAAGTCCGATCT
criterion not met

Another: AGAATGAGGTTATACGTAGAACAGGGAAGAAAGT
criterion not met

Again, but for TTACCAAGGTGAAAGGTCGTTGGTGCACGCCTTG
criterion met

Also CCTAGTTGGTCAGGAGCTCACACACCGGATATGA , if possible.
criterion not met

// same read-out, input: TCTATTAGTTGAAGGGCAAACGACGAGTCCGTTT
criterion not met

Follow-up item: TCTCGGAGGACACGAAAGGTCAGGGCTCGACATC
criterion met

Would you kindly repeat that for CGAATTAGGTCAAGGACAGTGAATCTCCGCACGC ?
criterion met

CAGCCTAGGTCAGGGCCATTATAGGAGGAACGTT , same question.
criterion not met

Proceed to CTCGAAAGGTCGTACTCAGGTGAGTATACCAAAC
criterion met

Then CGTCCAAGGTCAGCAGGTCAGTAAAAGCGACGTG ?
criterion met

Next entry: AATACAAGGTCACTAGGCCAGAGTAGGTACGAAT
criterion met

Would you kindly repeat that for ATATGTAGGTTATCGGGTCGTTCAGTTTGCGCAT ?
criterion not met

Queued: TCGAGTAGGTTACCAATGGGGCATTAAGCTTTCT
criterion not met

Also, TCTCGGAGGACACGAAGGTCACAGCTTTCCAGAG please.
criterion met

What do you have for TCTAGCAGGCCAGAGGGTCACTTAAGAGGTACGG ?
criterion not met

Continue with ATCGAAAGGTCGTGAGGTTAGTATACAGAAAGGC
criterion met

Note, next up: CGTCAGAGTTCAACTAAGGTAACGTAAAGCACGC
criterion met

Next sequence up: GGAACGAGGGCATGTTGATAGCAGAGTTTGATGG
criterion not met

Consider next the sequence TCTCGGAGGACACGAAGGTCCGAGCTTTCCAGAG in the same way.
criterion not met

Then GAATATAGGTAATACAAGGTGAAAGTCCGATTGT ?
criterion met
